Origin of values: patent US9999619B2

Target: human JAK1 (a.a. 837-1142)
Assay: In vitro JAK kinase assay (HTRF, phosphorylation of a biotinylated peptide), JAK1
Format: biochemical
Details: ratio of JAK2 IC50 to JAK1 IC50, measured at 1 mM ATP
reported_metric: IC50 Ratio JAK2/JAK1

Consider the worked cases shown below.
N#CCC1(n2ccc(-c3ncnc4[nH]ccc34)c2)CN(C2CCN(C(=O)c3ccc(O)c(C(F)(F)F)c3)CC2)C1	3.4
N#CCC1(n2cc(-c3ccnc4[nH]ccc34)cn2)CN(C2CCN(C(=O)C3CCC(F)(F)CC3)CC2)C1	6.5
Cc1ccc(C(=O)N2CCC(N3CC(CC#N)(n4cc(-c5ncnc6[nH]ccc56)cn4)C3)CC2)s1	4.1
N#CCC1(n2cc(-c3ncnc4[nH]ccc34)cn2)CN(C2CCN(C(=O)Nc3ccccc3Cl)CC2)C1	12.0

A. CCCOC(=O)N1CCC(N2CC(CC#N)(n3cc(-c4ncnc5[nH]ccc45)cn3)C2)CC1
B. N#CCC1(n2cc(-c3ncnc4[nH]ccc34)cn2)CN(C2CCN(C(=O)c3cccc(OC(F)(F)F)c3)CC2)C1
Which item exceeds the other in IC50 Ratio JAK2/JAK1, A or B ? Respond using the label that marks the chosen record. A

====

Molecular target: Jak2 (a.a. 828-1132) (Homo sapiens (Human))
Sequence (O60674 828-1132): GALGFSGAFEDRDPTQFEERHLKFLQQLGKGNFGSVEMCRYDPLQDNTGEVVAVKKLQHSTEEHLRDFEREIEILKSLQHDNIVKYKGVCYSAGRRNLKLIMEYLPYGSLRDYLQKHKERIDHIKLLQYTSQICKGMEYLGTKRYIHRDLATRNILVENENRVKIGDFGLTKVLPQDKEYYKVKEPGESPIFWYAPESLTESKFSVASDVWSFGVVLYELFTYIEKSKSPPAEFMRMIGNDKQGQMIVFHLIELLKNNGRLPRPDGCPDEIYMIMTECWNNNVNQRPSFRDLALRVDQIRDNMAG
Assay: In vitro JAK kinase assay (HTRF, phosphorylation of a biotinylated peptide), JAK2
Type: biochemical
Conditions: measured at 1 mM ATP
pIC50: −log10 of the molar value. Counter-ions that a name gives are not always drawn.
We begin with a simple list: items and their reported pIC50.

N#CCC1(n2cc(-c3c(C#N)cnc4[nH]ccc34)cn2)CN(C2CCN(C(=O)c3ccc(C#N)c(F)c3)CC2)C1 [Example 334]	< 7.00

Let me know recorded pIC50 for N#CCC1(n2cc(-c3ncnc4[nH]ccc34)cn2)CN(C2CCN(C(=O)c3cc(CN4CC[C@H](F)C4)nc(C(F)(F)F)n3)CC2)C1 [Example 377, TFA] , thanks. 7.30 to 8.00

Let me know recorded pIC50 for N#CCC1(n2ccc(-c3ncnc4[nH]ccc34)c2)CN(C2CCN(C(=O)c3cc(F)cc(C#N)c3)CC2)C1 [Example 263] , thanks. 7.00 to 7.30

Let me know recorded pIC50 for COc1cc(C(F)(F)F)sc1C(=O)N1CCC(N2CC(CC#N)(n3cc(-c4ncnc5[nH]ccc45)cn3)C2)CC1 [Example 70] , thanks. ≥ 8.00

Let me know recorded pIC50 for N#CCC1(n2cc(-c3ncnc4[nH]ccc34)cn2)CN(C2CCN(Cc3cc(Cl)cc(Cl)c3)CC2)C1 [Example 210] , thanks. ≥ 8.00

Let me know recorded pIC50 for N#CCC1(n2cc(-c3ncnc4[nH]ccc34)cn2)CN(C2CC3CCC(C2)N3C(=O)C2CCCCC2)C1 (stereo not shown) [Example 147] , thanks. ≥ 8.00

Let me know recorded pIC50 for N#CCC1(n2cc(-c3ccnc4[nH]ccc34)cn2)CN(C2CCN(C(=O)c3cncc(C(F)(F)F)n3)CC2)C1 [Example 300] , thanks. < 7.00

====

// Jak2 (a.a. 828-1132) (Homo sapiens (Human)) IC50 records

Cc1ncccc1NC(=O)N1CCC(N2CC(CC#N)(n3cc(-c4ncnc5[nH]ccc45)cn3)C2)CC1	10 to 50 nM
N#CCC1(n2cc(-c3c(F)cnc4[nH]ccc34)cn2)CN(C2CCN(C(=O)Nc3ccncc3C(F)(F)F)CC2)C1	10 to 50 nM
N#CCC1(n2cc(-c3ncnc4[nH]ccc34)cn2)CN(C2CCN(C(=O)Nc3ncc(F)cc3F)CC2)C1	50 to 100 nM

Kindly review the next compound as well.
Let me know recorded IC50 for `COc1ncccc1NC(=O)N1CCC(N2CC(CC#N)(n3ccc(-c4ncnc5[nH]ccc45)c3)C2)CC1` , thanks. 10 to 50 nM
